# assay_system: Prostaglandin E2 receptor EP3 subtype (Homo sapiens)
# Sequence (P43115 whole entry): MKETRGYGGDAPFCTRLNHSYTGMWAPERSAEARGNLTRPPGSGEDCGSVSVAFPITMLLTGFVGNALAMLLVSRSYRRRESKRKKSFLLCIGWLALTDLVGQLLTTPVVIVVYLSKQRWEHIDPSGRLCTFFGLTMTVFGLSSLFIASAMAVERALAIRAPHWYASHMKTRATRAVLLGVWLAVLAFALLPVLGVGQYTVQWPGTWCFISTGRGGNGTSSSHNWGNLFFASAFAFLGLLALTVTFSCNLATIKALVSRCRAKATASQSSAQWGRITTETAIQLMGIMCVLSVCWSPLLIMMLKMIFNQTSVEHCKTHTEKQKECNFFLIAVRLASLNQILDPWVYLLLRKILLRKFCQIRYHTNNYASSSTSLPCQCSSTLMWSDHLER
# test_method_notes: Agonist activity at human EP3 receptor expressed in CHO cells assessed as increase in intracellular calcium level by Fura 2-AM dye based fluorescence assay
# Assay type: functional, cell-based
readout: EC50

{"entry_smiles": "O=C(O)CCCC1=CC[C@@H]2[C@@H](/C=C/[C@@H](O)COc3ccccc3)[C@H](O)C[C@@H]2OC1", "assay_system": "Prostaglandin E2 receptor EP3 subtype (Homo sapiens)", "result": "4700 nM"}
{"entry_smiles": "O=C(O)CC[C@H]1CCC[C@@H]2[C@@H](/C=C/[C@@H](O)COc3ccccc3)[C@H](O)C[C@@H]2O1", "assay_system": "Prostaglandin E2 receptor EP3 subtype (Homo sapiens)", "result": "18 nM"}
{"entry_smiles": "O=C(O)CCC/C=C\\C[C@H]1C(=O)C[C@@H](O)[C@@H]1/C=C/[C@@H](O)COc1ccccc1", "assay_system": "Prostaglandin E2 receptor EP3 subtype (Homo sapiens)", "result": "0.89 nM"}
{"entry_smiles": "O=C(O)CCC1=CC[C@@H]2[C@@H](/C=C/[C@@H](O)COc3ccccc3)[C@H](O)C[C@@H]2OC1", "assay_system": "Prostaglandin E2 receptor EP3 subtype (Homo sapiens)", "result": "2700 nM"}
{"entry_smiles": "O=C(O)CCC[C@H]1CC[C@@H]2[C@@H](/C=C/[C@@H](O)COc3ccccc3)[C@H](O)C[C@@H]2O1", "assay_system": "Prostaglandin E2 receptor EP3 subtype (Homo sapiens)", "result": "3.6 nM"}
{"entry_smiles": "O=C(O)CCC[C@H]1CC[C@@H]2[C@@H](/C=C/[C@@H](O)COc3ccccc3)[C@H](O)C[C@@H]2OC1", "assay_system": "Prostaglandin E2 receptor EP3 subtype (Homo sapiens)", "result": "4 nM"}
{"entry_smiles": "O=C(O)CC[C@@H]1CCC[C@@H]2[C@@H](/C=C/[C@@H](O)COc3ccccc3)[C@H](O)C[C@@H]2O1", "assay_system": "Prostaglandin E2 receptor EP3 subtype (Homo sapiens)", "result": "27 nM"}
{"entry_smiles": "O=C(O)CCCCCC1=CC[C@@H]2[C@@H](/C=C/[C@@H](O)COc3ccccc3)[C@H](O)C[C@@H]2OC1", "assay_system": "Prostaglandin E2 receptor EP3 subtype (Homo sapiens)", "result": "6400 nM"}
{"entry_smiles": "O=C(O)CCCC[C@@H]1CC[C@@H]2[C@@H](/C=C/[C@@H](O)COc3ccccc3)[C@H](O)C[C@@H]2OC1", "assay_system": "Prostaglandin E2 receptor EP3 subtype (Homo sapiens)", "result": "130 nM"}
{"entry_smiles": "O=C(O)CCC[C@@H]1CC[C@@H]2[C@@H](/C=C/[C@@H](O)COc3ccccc3)[C@H](O)C[C@@H]2OC1", "assay_system": "Prostaglandin E2 receptor EP3 subtype (Homo sapiens)", "result": "2.3 nM"}
{"entry_smiles": "O=C(O)CCCC[C@H]1CC[C@@H]2[C@@H](/C=C/[C@@H](O)COc3ccccc3)[C@H](O)C[C@@H]2OC1", "assay_system": "Prostaglandin E2 receptor EP3 subtype (Homo sapiens)", "result": "540 nM"}
{"entry_smiles": "O=C(O)CCCCC1=CC[C@@H]2[C@@H](/C=C/[C@@H](O)COc3ccccc3)[C@H](O)C[C@@H]2OC1", "assay_system": "Prostaglandin E2 receptor EP3 subtype (Homo sapiens)", "result": "13 nM"}
{"entry_smiles": "O=C(O)CC[C@@H]1CC[C@@H]2[C@@H](/C=C/[C@@H](O)COc3ccccc3)[C@H](O)C[C@@H]2OC1", "assay_system": "Prostaglandin E2 receptor EP3 subtype (Homo sapiens)", "result": "870 nM"}
{"entry_smiles": "O=C(O)CCC/C=C\\C[C@@H]1[C@@H](/C=C/[C@@H](O)COc2cccc(C(F)(F)F)c2)[C@H](O)C[C@@H]1O", "assay_system": "Prostaglandin E2 receptor EP3 subtype (Homo sapiens)", "result": "3400 nM"}
{"entry_smiles": "O=C(O)CCC[C@@H]1CC[C@@H]2[C@@H](/C=C/[C@@H](O)COc3ccccc3)[C@H](O)C[C@@H]2O1", "assay_system": "Prostaglandin E2 receptor EP3 subtype (Homo sapiens)", "result": "4.1 nM"}
{"entry_smiles": "O=C(O)CC[C@H]1CC[C@@H]2[C@@H](/C=C/[C@@H](O)COc3ccccc3)[C@H](O)C[C@@H]2OC1", "assay_system": "Prostaglandin E2 receptor EP3 subtype (Homo sapiens)", "result": "4800 nM"}
